- TEST_NAME: Soluble aggregates of transiently expressed antibodies
- Type: physicochemical
- EXPERIMENTAL_PARAMETERS: Protein A purified antibody
ENDPOINT_NAME: % soluble aggregate (%)
Report the value in % with no unit label.

Problem: Tell me its % soluble aggregate given J1-65D variant 11: humanised/de-immunised J1-65D: J1-65D_VL_3 + J1-65D_VH_3 (antibody, V domains shown) VH: QVQLVQSGAEVKKPGSSVKVSCKASGYTFTDYEMHWVRQAPGQGLEWMGAIQPGGGGTAYAQKFQGRVTLTADKSTSTAYMELSSLRSEDTAVYYCTRRGYDDYPFAYWGQGTLVTVSSASTKGP VL: DIQMTQSPSSLSASVGDRVTITCRASGNIHNYLAWYQQKPGKAPKLLIYNAKTLADAVPSRFSGSGSGTDYTLTISSLQPEDFATYYCQHFWSAPWTFGQGTKLEIKRT as the entry.
Result: 1.00
